These measurements were taken from patent US20260200920A1.

# measurement-target: human recombinant kinase full-length AKT1 E17K (Homo sapiens, UniProt P31749, E17K)
# Construct: Purified human recombinant kinase full-length AKT1 E17K was expressed in insect cells
# Sequence (P31749 whole entry E17K): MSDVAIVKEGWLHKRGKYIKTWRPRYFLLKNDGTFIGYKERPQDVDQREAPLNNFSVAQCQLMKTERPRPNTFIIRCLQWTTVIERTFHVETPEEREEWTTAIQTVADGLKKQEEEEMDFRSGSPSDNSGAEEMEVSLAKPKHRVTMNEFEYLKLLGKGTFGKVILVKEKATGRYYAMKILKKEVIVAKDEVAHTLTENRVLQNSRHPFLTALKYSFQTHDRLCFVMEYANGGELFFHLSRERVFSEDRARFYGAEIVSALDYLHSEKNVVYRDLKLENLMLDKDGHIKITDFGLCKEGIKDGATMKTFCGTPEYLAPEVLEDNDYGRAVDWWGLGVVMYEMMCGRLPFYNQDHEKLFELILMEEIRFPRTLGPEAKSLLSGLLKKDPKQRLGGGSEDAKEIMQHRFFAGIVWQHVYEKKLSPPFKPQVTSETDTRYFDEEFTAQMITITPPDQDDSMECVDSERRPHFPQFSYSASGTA
# assay-overview: AKT1 E17K kinase assay (TR-FRET, Lance)
# condition-set: 0.6 nM AKT1 E17K, 50 nM Ulight-CREBtide, either 50 μM ATP or 2 mM ATP, 60 min at RT
pIC50: −log10 of the molar value.
measurement-name: pIC50

{"columns": ["molecule", "measurement-target", "reported-measurement"],
 "data": [
  ["CC1(C)CN(Cc2ccc(-n3c(-c4cccnc4N)nc4ccc(-c5ccccc5)nc43)cc2)CCC1C(=O)O (stereo not shown)", "human recombinant kinase full-length AKT1 E17K (Homo sapiens, UniProt P31749, E17K)", "≤ 5.70"],
  ["Nc1ncccc1-c1nc2ccc(-c3ccccc3F)nc2n1-c1ccc([C@@H]2CCN(C[C@H]3CC[C@@H](C(=O)O)CC3)C2)cc1 (single isomer, unassigned)", "human recombinant kinase full-length AKT1 E17K (Homo sapiens, UniProt P31749, E17K)", "5.70 to 6.30"]
]}

Query :: Check the records and state pIC50 for `Nc1ncccc1-c1nc2ccc(-c3ccccc3)nc2n1-c1ccc(C(=O)N2CC3(CC(C(=O)O)C3)C2)cc1`
Result :: ≤ 5.70

Query :: Check the records and state pIC50 for `Nc1ncccc1-c1nc2ccc(OC(F)(F)F)cc2n1-c1ccc(NC(=O)[C@H]2CC[C@H](C(=O)O)CC2)nc1`
Result :: ≤ 5.70

Query :: Check the records and state pIC50 for CC1(C)C[C@H](C(=O)O)CC[C@@H]1CN1CC(c2ccc(-n3c(-c4cccnc4N)nc4ccc(-c5ccccc5)nc43)cc2)C1 (stereo in doubt)
Result :: > 6.30

Query :: Check the records and state pIC50 for `Cc1nc(NC(=O)[C@H]2CC[C@H](C(=O)O)CC2)ccc1-n1c(-c2cccnc2N)nc2ccc(-c3cccc(F)c3F)nc21`
Result :: 5.70 to 6.30

Query :: Check the records and state pIC50 for Nc1ncccc1-c1nc2ccc(-c3ccccc3F)nc2n1-c1ccc([C@H]2CCN(C[C@H]3CC[C@@H](C(=O)O)CC3)C2)cc1 (single isomer, unassigned)
Result :: 5.70 to 6.30

Query :: Check the records and state pIC50 for `CC(C)(C(=O)O)C1CCN(Cc2ccc(-n3c(-c4cccnc4N)nc4ccc(-c5ccccc5)nc43)cn2)CC1`
Result :: ≤ 5.70

Query :: Check the records and state pIC50 for `Nc1ncccc1-c1nc2ccc(-c3ccccc3)nc2n1-c1ccc(C2CN(C[C@@H]3CC[C@H](C(=O)O)C3)C2)cc1`
Result :: > 6.30

Query :: Check the records and state pIC50 for `Cc1nc(NC(=O)[C@H]2CC[C@H](C(=O)O)CC2)ccc1-n1c(-c2cccnc2N)nc2ccc(-c3ccccc3F)nc21`
Result :: 5.70 to 6.30

Query :: Check the records and state pIC50 for CC1(C)CN(C(=O)c2ccc(-n3c(-c4cccnc4N)nc4ccc(-c5ccccc5)nc43)cn2)CCC1C(=O)O (stereo not shown)
Result :: ≤ 5.70

Query :: Check the records and state pIC50 for `Cn1nccc1-c1ccc2nc(-c3cccnc3N)n(-c3ccc(NC(=O)[C@H]4CC[C@H](C(=O)O)CC4)nc3)c2n1`
Result :: 5.70 to 6.30

Query :: Check the records and state pIC50 for `Nc1ncccc1-c1nc2ccc(-c3ccccc3)nc2n1-c1ccc(CN2CC3(CC(C(=O)O)C3)C2)nc1`
Result :: 5.70 to 6.30
